testedOn: ß2 (Homo sapiens, UniProt P07550)
Sequence (P07550 whole entry): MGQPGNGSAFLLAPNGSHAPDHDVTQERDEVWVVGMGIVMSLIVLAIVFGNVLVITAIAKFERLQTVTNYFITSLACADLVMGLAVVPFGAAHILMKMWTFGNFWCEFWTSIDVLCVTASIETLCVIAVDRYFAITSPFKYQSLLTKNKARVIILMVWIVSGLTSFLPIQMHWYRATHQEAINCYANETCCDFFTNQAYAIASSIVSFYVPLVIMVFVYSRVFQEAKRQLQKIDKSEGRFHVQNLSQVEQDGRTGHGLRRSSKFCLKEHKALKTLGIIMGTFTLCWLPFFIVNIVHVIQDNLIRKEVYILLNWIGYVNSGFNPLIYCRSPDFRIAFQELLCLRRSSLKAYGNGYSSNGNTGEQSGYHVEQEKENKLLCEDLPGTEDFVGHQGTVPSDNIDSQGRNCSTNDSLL
methodNotes: Block of ligand binding to β-adrenergic receptor, ß2
appliedConditions: read-out: Concentration (nM) To Block Binding of Ligand by 50% ß2
Hi there, I'd appreciate the recorded IC50 for every entry that follows.
One number for each entry, in nM.

# example entries with known answers
- molecule: "Cc1nc2c(c(N3CCNCC3)n1)SCCC2 [R^1 = -CH3, R^2 = H (the 1st table r1 drawing)]"
  unitLabel: "nM"
  IC50: 314
- molecule: "Cc1nc2c(c(N3CCNCC3)n1)CSC2 [R^1 = -CH3, R^2 = H (the 1st table r11 drawing)]"
  unitLabel: "nM"
  IC50: 340
- molecule: "CCN1CCN(c2nc(C)nc3c2SCCC3)CC1"
  unitLabel: "nM"
  IC50: 27000
- molecule: "CCc1nc(N2CCNCC2)c2sccc2n1 [R^1 = -C2H5, R^2 = H (the 2nd table r0 drawing)]"
  unitLabel: "nM"
  IC50: 140
- molecule: "CCc1nc(N2CCN(C)CC2)c2sccc2n1"
  unitLabel: "nM"
  IC50: 1040

Moving on to another molecule below.
Inquiry: Indicate its recorded IC50; the molecule in question is CCCCc1nc2c(c(N3CCN(C)CC3)n1)SCCC2
Reply text: 4800
